// data source = paper PMC11077089

# ASSAY_TARGET: T1, KAE1;BUD32 S163R;CGI121;PCC1 (Arabidopsis thaliana;Arabidopsis …, UniProt O49653;Q94K14;Q6NMZ4;Q8GWD7 1-353;1-226;1-172;1-96, |S163R||)
# T1 sequence 1: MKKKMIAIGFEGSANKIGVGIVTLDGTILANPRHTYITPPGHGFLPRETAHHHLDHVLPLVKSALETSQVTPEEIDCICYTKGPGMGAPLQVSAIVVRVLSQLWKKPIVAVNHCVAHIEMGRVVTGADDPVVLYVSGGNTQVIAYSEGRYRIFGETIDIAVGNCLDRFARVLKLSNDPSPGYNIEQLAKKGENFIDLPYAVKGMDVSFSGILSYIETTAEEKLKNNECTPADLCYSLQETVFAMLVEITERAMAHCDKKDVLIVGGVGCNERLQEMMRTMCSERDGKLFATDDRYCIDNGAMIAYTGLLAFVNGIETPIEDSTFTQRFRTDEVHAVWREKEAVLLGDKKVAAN
# T1 sequence 2: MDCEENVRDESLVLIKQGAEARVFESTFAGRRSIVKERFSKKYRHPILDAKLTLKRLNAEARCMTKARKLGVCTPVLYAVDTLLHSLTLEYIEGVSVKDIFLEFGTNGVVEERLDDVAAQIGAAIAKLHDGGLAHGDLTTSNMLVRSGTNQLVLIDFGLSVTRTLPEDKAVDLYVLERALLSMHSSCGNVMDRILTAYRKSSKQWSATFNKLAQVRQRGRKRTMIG
# T1 sequence 3: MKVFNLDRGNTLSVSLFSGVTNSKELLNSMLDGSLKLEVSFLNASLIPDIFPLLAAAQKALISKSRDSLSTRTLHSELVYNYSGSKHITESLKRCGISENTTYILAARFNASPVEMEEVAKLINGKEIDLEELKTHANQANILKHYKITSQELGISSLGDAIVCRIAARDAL
# T1 sequence 4: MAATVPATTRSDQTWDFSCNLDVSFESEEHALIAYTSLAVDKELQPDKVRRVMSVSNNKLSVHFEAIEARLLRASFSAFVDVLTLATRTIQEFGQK
# TEST_DESCRIPTION: MST; MST: 20 mM PBS pH 7.5, 300 mM NaCl, 0.05% Tween 20, 25 C, 50 nM RNA; EMSA: 20 mM Tris-HCl pH 7.5, 300 mM NaCl, 5 mM b-mercaptoethanol, 20% glycerol, agarose gel in Tris-glycine pH 8.0 (8.5 for FAM-RNA), 4 C
# ASSAY_CONTEXT: protein: recombinant;recombinant;recombinant;recombinant; tags: none (6His on partner PCC1);;6His (C-term);6His (C-term); chain copies: 2;2;2;2; label: 5' 6-FAM; tRNA cloverleaf
READOUT: pKd
Remember, pKd is on a log scale: it is -log10 of the molar concentration.

Ask | Please give the measured pKd for this binder: 5'-6FAM-tRNAArgCCU (structured_RNA) RNA: GCGCCUGUAGCUCAGUGGAUAGAGCGUCUGUUUCCUAAGCAGAAGGUCGUAGGUUCGACCCCUACCUGGCGCGCCA
Reply | 3.48
